Test system: OVCAR-3 ovarian
Test: NCI-60 one-dose screen, 48 h (100 = growth as untreated, 0 = no growth, -100 = all killed)
Conditions: 10 µM unless noted
Protocol: Growth inhibition of the OVCAR-3 human tumor cell line is measured as a screen for anti-cancer activity. Cells are grown in 96 well plates and exposed to the test compound for 48 hours. Compounds are tested at a single concentration, which is 10^-5 M for most compounds. The reported endpoint is percent growth (GI% or GIPRCNT), where numbers from 0 - 100% represent growth inhibition, and numbers from -100% - 0 represent cell death. For example, a value of 40 represents 60% growth inhibition. […]
About 83,000 compounds went through this panel and 20% of them were active in at least one assay; those are over-represented in the sample as a whole.
Parameter Measured: growth (%)
Quick reminder: number only, in %, skip the unit.

Q) Short answer please: growth, OVCAR-3 ovarian, entry COc1ccc(/C=C(/C(=O)c2ccc(Cl)cc2)C(=O)C(F)(F)F)cc1
A) 98.7

Q) Short answer please: growth, OVCAR-3 ovarian, entry Cc1ccc(S(=O)(=O)N/N=C2\CC3CCC2(C)C3(C)C)cc1 (centres undefined)
A) 103

Q) Short answer please: growth, OVCAR-3 ovarian, entry O=[N+]([O-])c1cc([N+](=O)[O-])c(C(F)(F)F)cc1NN=C(c1ccc(O)cc1)c1ccc(O)cc1
A) 96.3

Q) Short answer please: growth, OVCAR-3 ovarian, entry C#C[C@]1(O)CC[C@H]2[C@@H]3CC=C4c5nc(Nc6ccccc6[N+](=O)[O-])sc5CC[C@]4(C)[C@H]3CC[C@@]21C
A) 65.8

These entries and their values trace back to PubChem BioAssay (NCI).
